Biological target: Calcium/calmodulin-dependent protein kinase type II subunit gamma (Homo sapiens) (UniProt Q13555)
Sequence (Q13555 whole entry): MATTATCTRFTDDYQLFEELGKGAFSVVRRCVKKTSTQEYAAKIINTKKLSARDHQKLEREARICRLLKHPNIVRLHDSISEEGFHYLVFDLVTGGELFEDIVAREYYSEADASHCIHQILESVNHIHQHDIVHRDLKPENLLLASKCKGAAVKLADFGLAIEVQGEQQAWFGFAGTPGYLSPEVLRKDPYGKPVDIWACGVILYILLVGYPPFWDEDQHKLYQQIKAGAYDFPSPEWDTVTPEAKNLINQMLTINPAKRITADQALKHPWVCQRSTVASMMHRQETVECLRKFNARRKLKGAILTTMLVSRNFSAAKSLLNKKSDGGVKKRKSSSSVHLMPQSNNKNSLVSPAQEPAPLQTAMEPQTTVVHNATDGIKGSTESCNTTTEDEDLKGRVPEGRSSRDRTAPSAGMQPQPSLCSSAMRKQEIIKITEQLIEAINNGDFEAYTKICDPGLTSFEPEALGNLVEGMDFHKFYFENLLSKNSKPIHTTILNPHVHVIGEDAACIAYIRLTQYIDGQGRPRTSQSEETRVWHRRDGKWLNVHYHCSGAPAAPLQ
Assay: Inhibition of CaMK2gamma in human PC3 cell lysates at 10 uM using desthiobiotin-tagged ATP probe AX9989 followed by trypsinization by LC/MS analysis
Details: PC-3

- Structure Smiles: "O=C(NC1(c2ccc(F)cc2)CC1)c1ccc2nc(N[C@H]3CC[C@H](O)CC3)c3nccn3c2c1"
  inhibition: "< 35%"
- Structure Smiles: "C[C@@H](NC(=O)c1ccc2nc(N[C@H]3CC[C@H](O)CC3)c3nccn3c2c1)c1ccccc1"
  inhibition: "< 35%"
- Structure Smiles: "O=C(NC1(Cc2ccc(F)cc2)CC1)c1ccc2nc(N[C@H]3CC[C@H](O)CC3)c3nccn3c2c1"
  inhibition: "< 35%"

* * *

Examples of molecules with documented inhibition follow.
Target: Microtubule-associated serine/threonine-protein kinase 3 (Homo sapiens, UniProt O60307)
Sequence (O60307 whole entry): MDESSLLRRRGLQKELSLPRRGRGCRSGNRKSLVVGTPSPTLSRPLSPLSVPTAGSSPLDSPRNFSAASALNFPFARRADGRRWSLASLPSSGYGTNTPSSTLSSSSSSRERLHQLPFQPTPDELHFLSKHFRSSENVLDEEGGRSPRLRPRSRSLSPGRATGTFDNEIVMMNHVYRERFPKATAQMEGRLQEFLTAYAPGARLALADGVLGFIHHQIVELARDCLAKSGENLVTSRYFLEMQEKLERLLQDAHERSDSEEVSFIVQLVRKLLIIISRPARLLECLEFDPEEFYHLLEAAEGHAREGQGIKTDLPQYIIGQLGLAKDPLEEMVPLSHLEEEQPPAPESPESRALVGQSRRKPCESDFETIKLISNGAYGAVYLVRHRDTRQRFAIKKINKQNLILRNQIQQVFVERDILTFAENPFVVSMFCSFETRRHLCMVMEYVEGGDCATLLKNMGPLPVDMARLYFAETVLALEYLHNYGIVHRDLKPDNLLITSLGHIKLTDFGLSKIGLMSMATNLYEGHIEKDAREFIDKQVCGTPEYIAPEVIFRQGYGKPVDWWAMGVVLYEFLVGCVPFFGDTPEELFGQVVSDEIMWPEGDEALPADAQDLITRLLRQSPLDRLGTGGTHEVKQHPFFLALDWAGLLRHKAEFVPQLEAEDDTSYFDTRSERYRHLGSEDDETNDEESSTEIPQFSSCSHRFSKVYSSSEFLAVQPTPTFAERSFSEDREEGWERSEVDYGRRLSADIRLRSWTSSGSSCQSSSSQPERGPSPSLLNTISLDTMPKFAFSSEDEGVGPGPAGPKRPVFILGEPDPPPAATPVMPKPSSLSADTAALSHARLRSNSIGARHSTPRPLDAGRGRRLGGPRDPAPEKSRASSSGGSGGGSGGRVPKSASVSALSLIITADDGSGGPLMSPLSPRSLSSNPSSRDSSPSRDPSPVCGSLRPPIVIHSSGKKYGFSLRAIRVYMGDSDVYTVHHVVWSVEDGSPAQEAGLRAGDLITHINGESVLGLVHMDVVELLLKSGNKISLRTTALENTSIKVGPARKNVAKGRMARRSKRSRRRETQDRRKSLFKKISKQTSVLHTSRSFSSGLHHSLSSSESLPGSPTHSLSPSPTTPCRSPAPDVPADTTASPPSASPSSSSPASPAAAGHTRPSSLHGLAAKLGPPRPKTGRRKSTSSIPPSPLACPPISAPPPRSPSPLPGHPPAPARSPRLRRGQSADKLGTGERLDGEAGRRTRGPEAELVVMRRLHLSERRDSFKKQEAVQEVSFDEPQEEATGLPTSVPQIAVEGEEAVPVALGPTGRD
Assay: Inhibition of MAST3 in human PC3 cell lysates at 10 uM using desthiobiotin-tagged ATP probe AX9989 followed by trypsinization by LC/MS analysis
Conditions: PC-3

- Structure Smiles: "O=C(NC1(Cc2ccc(F)cc2)CC1)c1ccc2nc(N[C@H]3CC[C@H](O)CC3)c3nccn3c2c1"
  inhibition: "< 35%"
- Structure Smiles: "O=C(O)c1ccc2nc(N[C@H]3CC[C@H](O)CC3)c3nccn3c2c1"
  inhibition: "< 35%"
- Structure Smiles: "NC(=O)c1ccc2nc(N[C@H]3CC[C@H](O)CC3)c3nccn3c2c1"
  inhibition: "< 35%"

* * *

Target: Cyclin-dependent kinase 16 (Homo sapiens)
Assay: Inhibition of PCTAIRE1 in human PC3 cell lysates at 10 uM using desthiobiotin-tagged ATP probe AX9989 followed by trypsinization by LC/MS analysis
Conditions: PC-3
Examples of molecules with documented inhibition follow.

- Structure Smiles: "C[C@H](NC(=O)c1ccc2nc(N[C@H]3CC[C@H](O)CC3)c3nccn3c2c1)c1ccccc1"
  Target Of Assay: "Cyclin-dependent kinase 16 (Homo sapiens)"
  inhibition: "< 35%"
- Structure Smiles: "O=C(NC1(Cc2ccc(F)cc2)CC1)c1ccc2nc(N[C@H]3CC[C@H](O)CC3)c3nccn3c2c1"
  Target Of Assay: "Cyclin-dependent kinase 16 (Homo sapiens)"
  inhibition: "< 35%"
- Structure Smiles: "CCC[C@@H](NC(=O)c1ccc2nc(N[C@H]3CC[C@H](O)CC3)c3nccn3c2c1)c1ccccc1"
  Target Of Assay: "Cyclin-dependent kinase 16 (Homo sapiens)"
  inhibition: "< 35%"

* * *

Molecular target: Serine/threonine-protein kinase Chk2 (Homo sapiens) (UniProt O96017)
Sequence (O96017 whole entry): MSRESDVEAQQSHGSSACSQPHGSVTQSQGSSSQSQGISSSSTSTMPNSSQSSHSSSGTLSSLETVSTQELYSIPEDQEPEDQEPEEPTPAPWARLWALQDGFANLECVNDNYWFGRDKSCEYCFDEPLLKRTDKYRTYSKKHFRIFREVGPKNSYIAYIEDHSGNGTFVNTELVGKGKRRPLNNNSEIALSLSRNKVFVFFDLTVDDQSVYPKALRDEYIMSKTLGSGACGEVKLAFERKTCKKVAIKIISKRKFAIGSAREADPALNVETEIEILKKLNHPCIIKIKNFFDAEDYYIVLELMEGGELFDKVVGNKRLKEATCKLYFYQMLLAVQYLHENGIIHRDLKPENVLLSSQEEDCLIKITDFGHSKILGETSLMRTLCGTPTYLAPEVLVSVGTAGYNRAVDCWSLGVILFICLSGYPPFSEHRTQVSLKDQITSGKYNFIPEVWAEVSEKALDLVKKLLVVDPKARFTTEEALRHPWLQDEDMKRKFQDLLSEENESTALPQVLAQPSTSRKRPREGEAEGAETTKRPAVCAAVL
Experiment: Inhibition of CHK2 in human PC3 cell lysates at 10 uM using desthiobiotin-tagged ATP probe AX9989 followed by trypsinization by LC/MS analysis
Conditions: PC-3
Examples of compounds with documented inhibition follow.

- Structure Smiles: "C[C@H](NC(=O)c1ccc2nc(N[C@H]3CC[C@H](O)CC3)c3nccn3c2c1)c1ccccc1"
  Target Of Assay: "Serine/threonine-protein kinase Chk2 (Homo sapiens) (UniProt O96017)"
  inhibition: "< 35%"
- Structure Smiles: "CC(C)(NC(=O)c1ccc2nc(N[C@H]3CC[C@H](O)CC3)c3nccn3c2c1)c1ccccc1"
  Target Of Assay: "Serine/threonine-protein kinase Chk2 (Homo sapiens) (UniProt O96017)"
  inhibition: "< 35%"
- Structure Smiles: "O=C(O)c1ccc2nc(N[C@H]3CC[C@H](O)CC3)c3nccn3c2c1"
  Target Of Assay: "Serine/threonine-protein kinase Chk2 (Homo sapiens) (UniProt O96017)"
  inhibition: "35%"
- Structure Smiles: "CCC[C@@H](NC(=O)c1ccc2nc(N[C@H]3CC[C@H](O)CC3)c3nccn3c2c1)c1ccccc1"
  Target Of Assay: "Serine/threonine-protein kinase Chk2 (Homo sapiens) (UniProt O96017)"
  inhibition: "< 35%"
- Structure Smiles: "CC[C@@H](NC(=O)c1ccc2nc(N[C@H]3CC[C@H](O)CC3)c3nccn3c2c1)c1ccccc1"
  Target Of Assay: "Serine/threonine-protein kinase Chk2 (Homo sapiens) (UniProt O96017)"
  inhibition: "< 35%"
- Structure Smiles: "O=C(N[C@H](CO)c1ccccc1)c1ccc2nc(N[C@H]3CC[C@H](O)CC3)c3nccn3c2c1"
  Target Of Assay: "Serine/threonine-protein kinase Chk2 (Homo sapiens) (UniProt O96017)"
  inhibition: "45.6%"

* * *

Biological target: Serine/threonine-protein kinase PRP4 homolog (Homo sapiens)
Assay: Inhibition of PRP4 in human PC3 cell lysates at 10 uM using desthiobiotin-tagged ATP probe AX9989 followed by trypsinization by LC/MS analysis
Conditions: PC-3
Examples of molecules with documented inhibition follow.

- Structure Smiles: "O=C(NC1(c2ccccc2)CC1)c1ccc2nc(N[C@H]3CC[C@H](O)CC3)c3nccn3c2c1"
  Target Of Assay: "Serine/threonine-protein kinase PRP4 homolog (Homo sapiens)"
  inhibition: "< 35%"
- Structure Smiles: "C[C@H](NC(=O)c1ccc2nc(N[C@H]3CC[C@H](O)CC3)c3nccn3c2c1)c1ccccc1"
  Target Of Assay: "Serine/threonine-protein kinase PRP4 homolog (Homo sapiens)"
  inhibition: "< 35%"
- Structure Smiles: "O=C(NC1(c2ccc(F)cc2)CC1)c1ccc2nc(N[C@H]3CC[C@H](O)CC3)c3nccn3c2c1"
  Target Of Assay: "Serine/threonine-protein kinase PRP4 homolog (Homo sapiens)"
  inhibition: "< 35%"
- Structure Smiles: "O=C(O)c1ccc2nc(N[C@H]3CC[C@H](O)CC3)c3nccn3c2c1"
  Target Of Assay: "Serine/threonine-protein kinase PRP4 homolog (Homo sapiens)"
  inhibition: "< 35%"
- Structure Smiles: "O=C(N[C@H](CO)c1ccccc1)c1ccc2nc(N[C@H]3CC[C@H](O)CC3)c3nccn3c2c1"
  Target Of Assay: "Serine/threonine-protein kinase PRP4 homolog (Homo sapiens)"
  inhibition: "< 35%"

* * *

Molecular target: Glycogen synthase kinase-3 beta (Homo sapiens)
Test: Inhibition of GSK3beta in human PC3 cell lysates at 10 uM using desthiobiotin-tagged ATP probe AX9989 followed by trypsinization by LC/MS analysis
Conditions: PC-3

- Structure Smiles: "O=C(NC1(c2ccccc2)CCC1)c1ccc2nc(N[C@H]3CC[C@H](O)CC3)c3nccn3c2c1"
  Target Of Assay: "Glycogen synthase kinase-3 beta (Homo sapiens)"
  inhibition: "< 35%"
- Structure Smiles: "O=C(NC1(c2ccc(F)cc2)CC1)c1ccc2nc(N[C@H]3CC[C@H](O)CC3)c3nccn3c2c1"
  Target Of Assay: "Glycogen synthase kinase-3 beta (Homo sapiens)"
  inhibition: "< 35%"
- Structure Smiles: "NC(=O)c1ccc2nc(N[C@H]3CC[C@H](O)CC3)c3nccn3c2c1"
  Target Of Assay: "Glycogen synthase kinase-3 beta (Homo sapiens)"
  inhibition: "96%"
- Structure Smiles: "CCC[C@@H](NC(=O)c1ccc2nc(N[C@H]3CC[C@H](O)CC3)c3nccn3c2c1)c1ccccc1"
  Target Of Assay: "Glycogen synthase kinase-3 beta (Homo sapiens)"
  inhibition: "< 35%"
